tested on: Escherichia coli TOP10; test: shrunken log2 fold change of peptide-encoding DNA abundance (4.5 h post-induction vs induction); higher = less antimicrobial activity (less host growth inhibition); conditions: time post-induction: 4.5 h; library: site-saturation at positions 5, 18, 19, 20;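 also: peptides expressed intracellularly from a pBAD plasmid library in pooled LB shake-flask culture, induced with 0.3% L-arabinose, DNA abundance read by NGS, three biological replicates, DESeq2 with apeglm shrinkage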
attribute.measured: shrunken log2 fold change

// shrunken log2 fold change lookup, sequence = "RRIRKRPPRLPRPRPRPHMMPRP" , result: 0.217

// shrunken log2 fold change lookup, sequence = "RRIRIRPPRLPRPRPRPCHFPRP" , result: -0.131

// shrunken log2 fold change lookup, sequence = "RRIRARPPRLPRPRPRPHYKPRP" , result: -0.424

// shrunken log2 fold change lookup, sequence = "RRIRPRPPRLPRPRPRPCWWPRP" , result: 0.742

// shrunken log2 fold change lookup, sequence = "RRIRRRPPRLPRPRPRPEKKPRP" , result: 0.0396

// shrunken log2 fold change lookup, sequence = "RRIRMRPPRLPRPRPRPCTKPRP" , result: 2.28

// shrunken log2 fold change lookup, sequence = "RRIRPRPPRLPRPRPRPWSWPRP" , result: 0.217

// shrunken log2 fold change lookup, sequence = "RRIRARPPRLPRPRPRPVQMPRP" , result: 0.21

// shrunken log2 fold change lookup, sequence = "RRIRTRPPRLPRPRPRPWVFPRP" , result: 0.0157

// shrunken log2 fold change lookup, sequence = "RRIRYRPPRLPRPRPRPAFKPRP" , result: -0.145

// shrunken log2 fold change lookup, sequence = "RRIRTRPPRLPRPRPRPCEWPRP" , result: 0.013

// shrunken log2 fold change lookup, sequence = "RRIRGRPPRLPRPRPRPYCHPRP" , result: 0.054

// shrunken log2 fold change lookup, sequence = "RRIRNRPPRLPRPRPRPCWRPRP" , result: -0.174

// shrunken log2 fold change lookup, sequence = "RRIRFRPPRLPRPRPRPHMGPRP" , result: -0.292

// shrunken log2 fold change lookup, sequence = "RRIRARPPRLPRPRPRPRDVPRP" , result: 0.261

// shrunken log2 fold change lookup, sequence = "RRIRKRPPRLPRPRPRPKVIPRP" , result: 0.156

// shrunken log2 fold change lookup, sequence = "RRIRYRPPRLPRPRPRPPAIPRP" , result: -0.319

// shrunken log2 fold change lookup, sequence = "RRIRRRPPRLPRPRPRPTFKPRP" , result: 0.214

// shrunken log2 fold change lookup, sequence = "RRIRERPPRLPRPRPRPGNDPRP" , result: -0.0081

// shrunken log2 fold change lookup, sequence = "RRIRNRPPRLPRPRPRPGTIPRP" , result: -0.316

// shrunken log2 fold change lookup, sequence = "RRIRFRPPRLPRPRPRPVKLPRP" , result: 0.294

// shrunken log2 fold change lookup, sequence = "RRIRPRPPRLPRPRPRPGHEPRP" , result: -0.202

// shrunken log2 fold change lookup, sequence = "RRIRRRPPRLPRPRPRPCEKPRP" , result: -0.0914

// shrunken log2 fold change lookup, sequence = "RRIRIRPPRLPRPRPRPQQMPRP" , result: -0.0189

// shrunken log2 fold change lookup, sequence = "RRIRERPPRLPRPRPRPNPIPRP" , result: -0.213

// shrunken log2 fold change lookup, sequence = "RRIRARPPRLPRPRPRPYSNPRP" , result: -0.781

// shrunken log2 fold change lookup, sequence = "RRIRDRPPRLPRPRPRPFNNPRP" , result: -0.226

// shrunken log2 fold change lookup, sequence = "RRIRGRPPRLPRPRPRPQKFPRP" , result: -0.0494

// shrunken log2 fold change lookup, sequence = "RRIRDRPPRLPRPRPRPDVGPRP" , result: 0.232

// shrunken log2 fold change lookup, sequence = "RRIRRRPPRLPRPRPRPADEPRP" , result: 2.06

// shrunken log2 fold change lookup, sequence = "RRIRARPPRLPRPRPRPRVGPRP" , result: 0.352

// shrunken log2 fold change lookup, sequence = "RRIRFRPPRLPRPRPRPFEAPRP" , result: -0.105

// shrunken log2 fold change lookup, sequence = "RRIRSRPPRLPRPRPRPNYSPRP" , result: -0.401

// shrunken log2 fold change lookup, sequence = "RRIRARPPRLPRPRPRPMTAPRP" , result: 0.433

// shrunken log2 fold change lookup, sequence = "RRIRKRPPRLPRPRPRPPIAPRP" , result: 0.464

// shrunken log2 fold change lookup, sequence = "RRIRVRPPRLPRPRPRPNMTPRP" , result: -0.256

// shrunken log2 fold change lookup, sequence = "RRIRTRPPRLPRPRPRPELGPRP" , result: 0.248

// shrunken log2 fold change lookup, sequence = "RRIRYRPPRLPRPRPRPFPFPRP" , result: -0.271

// shrunken log2 fold change lookup, sequence = "RRIRSRPPRLPRPRPRPYTPPRP" , result: -1.07

// shrunken log2 fold change lookup, sequence = "RRIRERPPRLPRPRPRPSHRPRP" , result: -0.0834

// shrunken log2 fold change lookup, sequence = "RRIRKRPPRLPRPRPRPWYTPRP" , result: -0.177

// shrunken log2 fold change lookup, sequence = "RRIRRRPPRLPRPRPRPRLQPRP" , result: 0.349

// shrunken log2 fold change lookup, sequence = "RRIRWRPPRLPRPRPRPRIMPRP" , result: 0.12

// shrunken log2 fold change lookup, sequence = "RRIRHRPPRLPRPRPRPMCWPRP" , result: -0.178

// shrunken log2 fold change lookup, sequence = "RRIRMRPPRLPRPRPRPAQDPRP" , result: 0.376

// shrunken log2 fold change lookup, sequence = "RRIRLRPPRLPRPRPRPGSYPRP" , result: 0.186

// shrunken log2 fold change lookup, sequence = "RRIRCRPPRLPRPRPRPAYDPRP" , result: 0.0664

// shrunken log2 fold change lookup, sequence = "RRIRCRPPRLPRPRPRPTCSPRP" , result: -0.157

// shrunken log2 fold change lookup, sequence = "RRIRARPPRLPRPRPRPLRLPRP" , result: 0.809

// shrunken log2 fold change lookup, sequence = "RRIRIRPPRLPRPRPRPCASPRP" , result: 0.02

// shrunken log2 fold change lookup, sequence = "RRIRWRPPRLPRPRPRPPVIPRP" , result: -0.189

// shrunken log2 fold change lookup, sequence = "RRIRPRPPRLPRPRPRPDENPRP" , result: -0.0444

// shrunken log2 fold change lookup, sequence = "RRIRGRPPRLPRPRPRPLNQPRP" , result: 0.725

// shrunken log2 fold change lookup, sequence = "RRIRFRPPRLPRPRPRPHLWPRP" , result: 0.185

// shrunken log2 fold change lookup, sequence = "RRIRCRPPRLPRPRPRPGKKPRP" , result: -0.0838

// shrunken log2 fold change lookup, sequence = "RRIRSRPPRLPRPRPRPPIVPRP" , result: -0.0118

// shrunken log2 fold change lookup, sequence = "RRIRTRPPRLPRPRPRPKRAPRP" , result: 0.273

// shrunken log2 fold change lookup, sequence = "RRIRNRPPRLPRPRPRPVYSPRP" , result: -0.252

// shrunken log2 fold change lookup, sequence = "RRIRTRPPRLPRPRPRPWSNPRP" , result: 0.0394

// shrunken log2 fold change lookup, sequence = "RRIRVRPPRLPRPRPRPKGLPRP" , result: -0.239

// shrunken log2 fold change lookup, sequence = "RRIRKRPPRLPRPRPRPEPGPRP" , result: 0.608

// shrunken log2 fold change lookup, sequence = "RRIRYRPPRLPRPRPRPRMVPRP" , result: -0.475

// shrunken log2 fold change lookup, sequence = "RRIRQRPPRLPRPRPRPEISPRP" , result: 0.139
